- System: SB.mhdgc-1
- ASSAY TEXT: AC50 for growth inhibition (viability) (log10 M); higher = less potent
- STUDY CONDITIONS: SB.mhdgc-1 (hereditary c.1380delA CDH1 gastric cancer)
Structures can show the parent of a compound that is named as a salt.
AC50 for growth inhibition (log10 M) less than -6 is T; AC50 for growth inhibition (log10 M) greater than or equal to -6 is F.

molecule=O=C(c1ccc(/C=C/c2n[nH]c3ccccc23)cc1)N1CCNCC1 group=F
molecule="CC[C@@]1([C@@H]2O[C@@H]([C@H]3O[C@@](O)(CO)[C@H](C)C[C@@H]3C)C[C@@H]2C)CC[C@H]([C@]2(C)CC[C@]3(C[C@H](O)[C@@H](C)[C@@H]([C@@H](C)[C@@H](OC)[C@H](C)C(=O)[O-])O3)O2)O1 [Monensin sodium salt]" group=T
molecule=COc1cc2nccc(Oc3ccc(NC(=O)Nc4cc(C)on4)c(Cl)c3)c2cc1OC group=F
molecule=CCOc1cc2ncc(C#N)c(Nc3ccc(OCc4ccccn4)c(Cl)c3)c2cc1NC(=O)/C=C/CN(C)C group=T
molecule="ClC1=CC=C2N/C3=N/C(=O)CN3CC2=C1Cl [anagrelide]" group=F
molecule=O=C(NCc1ccccc1)[C@H](Cc1ccccc1)NC(=O)[C@H]1O[C@@H]1C(=O)NCCc1ccc(O)cc1 group=T
molecule=O=C(CCc1ccc(O)cc1)c1c(O)cc(O)cc1O group=T

Origin of measurements: the supplement of paper PMC5412046
